growth: recorded values
Test system: OVCAR-4 ovarian
Test: NCI-60 one-dose screen, 48 h (100 = growth as untreated, 0 = no growth, -100 = all killed)
Details: 10 µM unless noted
The panel holds about 83,000 compounds, 20% with a hit somewhere; the sample as a whole holds those more often.
measured-endpoint: growth (%)

In [3]: df
Out[3]:
                                   compound      test_target  readout_units  endpoint_value
0                      COc1cc(Br)c(OC)cc1Br  OVCAR-4 ovarian              %             102
1  COc1c(NC[C@H]2OC(O)[C@H](O)[C@@H](O)[C@@H]2O)c(=O)c1=O (some centres undefined)  OVCAR-4 ovarian              %            84.4
2  COc1cccc2nc(Nc3ccc(NC(=O)c4ccc5ncccc5c4)cc3)ccc12  OVCAR-4 ovarian              %            89.7
3                              CCNCc1ccncc1  OVCAR-4 ovarian              %            97.8
4             Cc1cc(N/C=c2\sc3ncnn3c2=O)no1  OVCAR-4 ovarian              %             106
5  COc1ccc(Cn2cc(COc3cc(/C=C/C(=O)c4cc(OC)c(OC)c(OC)c4)ccc3OC)nn2)cc1  OVCAR-4 ovarian              %              51
6  O=C(c1c[nH]c2ccccc12)C(Sc1nc2ccccc2c(=O)[nH]1)c1ccccc1 (centres undefined)  OVCAR-4 ovarian              %            95.9
7  Cc1ccc(S(=O)(=O)N2CCC(C(=O)Nc3ccc(F)cc3F)CC2)cc1  OVCAR-4 ovarian              %            83.7
8  COc1ccc(NC(=O)CSc2nc3ccc(Cl)cc3c(=O)n2-c2ccccc2C(F)(F)F)c(OC)c1OC  OVCAR-4 ovarian              %           -4.33

###

Test system: SN12C renal
Assay: NCI-60 one-dose screen, 48 h (100 = growth as untreated, 0 = no growth, -100 = all killed)
Settings: 10 µM unless noted
About 83,000 compounds went through this panel and 20% of them were active in at least one assay; those are over-represented in the sample as a whole.
measured-endpoint: growth (%)

compound	test-target	measured-endpoint	readout-units	endpoint-value
O=P([O-])(O)OP(=O)([O-])O.[NH-][C@H]1CCCC[C@@H]1[NH-].[OH-].[OH-].[Pt+4]	SN12C renal	growth	%	105
C[N+](C)(C)c1ccc(CC2c3ccccc3-c3ccccc32)cc1	SN12C renal	growth	%	21.3
CCn1cc(C(=O)O)c(=O)c2cc(F)c(N3CCN(S(=O)(=O)c4ccc(OC)c(OC)c4)CC3)cc21	SN12C renal	growth	%	101
O=C(CCCn1c2c(sc3ccccc32)c(=O)n2nnc(-c3ccccc3)c12)NCCc1cnc[nH]1	SN12C renal	growth	%	1.75
CCN(C(=O)c1cc2ccccc2[nH]1)[C@H]1CCC[C@@H](NCc2ccc(OC)cc2)C1	SN12C renal	growth	%	92.2
CCC1CCc2nc3sc(C(=O)Nc4ccccc4C)c(N)c3cc2C1 (stereo unspecified)	SN12C renal	growth	%	58
CCC(=O)Nc1ccccc1C#C/C=C\C#Cc1ccccc1SC	SN12C renal	growth	%	82.1
Cc1ccc2nc(-c3c(CCCO)noc3N)[nH]c(=O)c2c1	SN12C renal	growth	%	111
C=CCOc1ccc(/C(O)=C2\C(=O)C(=O)N(c3nccs3)C2c2ccccc2F)cc1 (stereo unspecified)	SN12C renal	growth	%	103
c1ccc(CCn2nnc3c(Nc4ccc(N5CCOCC5)cc4)ncnc32)cc1	SN12C renal	growth	%	92.1
O=C(O)c1cn(C2CC2)c2cc(N3CCN(S(=O)(=O)c4ccc(Cl)c(Cl)c4)CC3)c(F)cc2c1=O	SN12C renal	growth	%	10.4
COc1cc2nc(N3CCC[C@@H](NC4=CC(=O)c5ccccc5C4=O)C3)nc(N)c2cc1OC	SN12C renal	growth	%	95.9
COc1cc(NS(C)(=O)=O)ccc1Nc1c2ccc([N+](=O)[O-])cc2nc2c(C)cccc12	SN12C renal	growth	%	2.9
NC(C(=O)O)C(O)c1ccc(OCc2ccccc2)c(OCc2ccccc2)c1 (stereo unspecified)	SN12C renal	growth	%	107
CCCCCCC[C@@H](O)CC(=O)N[C@H](CCCCN)C(=O)N[C@H](Cc1c[nH]c2ccccc12)C(=O)NC(CCCCN)C(=O)N[C@H](CC(C)C)C(=O)N[C@H](Cc1ccccc1)C(=O)N[C@H](CCCCN)C(=O)N[C@H](CCCCN)C(=O)N[C@H](CC(C)C)C(=O)N1CCCC1C(=O)N[C@H](CCCCN)C(=O)N[C@H](Cc1ccccc1)C(=O)N[C@H](CC(C)C)C(=O)N[C@H](Cc1c[nH]cn1)C(=O)N[C@H](CC(C)C)C(=O)N[C@H](C)C(=O)N[C@H](CCCCN)C(=O)N[C@H](CCCCN)C(=O)N[C@H](Cc1ccccc1)C(=O)O (stereo partly specified)	SN12C renal	growth	%	-40.7
CC(=O)n1cc([C@H]2CC[C@H](c3cn(C(C)=O)c4ccccc34)c3c2[nH]c2ccccc32)c2ccccc21	SN12C renal	growth	%	84.7
COc1ccc(Cn2c(SC)nc(=O)n(Cc3ccc(Cl)cc3)c2=O)cc1	SN12C renal	growth	%	93.5
O=C(Nc1cc(C(F)(F)F)cc(C(F)(F)F)c1)Nc1ccc(OCc2nnc(-c3ccc(Cl)cc3)o2)c(F)c1	SN12C renal	growth	%	11.1
N=C(N)c1ccc(-c2ccc(-c3ccc(Cl)cc3)o2)nc1	SN12C renal	growth	%	-80.7
COc1ccc(/C=C2\C(=O)N(C(=O)c3csc(NC(C)=O)n3)N=C2C)cc1	SN12C renal	growth	%	106
CCCOC(=O)C1(O)CCCC1	SN12C renal	growth	%	102

###

growth: recorded values
Tested on: SK-OV-3 ovarian
Assay: NCI-60 one-dose screen, 48 h (100 = growth as untreated, 0 = no growth, -100 = all killed)
Conditions: 10 µM unless noted
This is part of a sample that, as a whole, favours compounds with a hit. Of some 83,000 tested, about 20% had one in any assay.

molecule	test-target	growth [%]
COc1cc(-c2csc(NC(=O)Nc3ccc(Cl)cc3Cl)n2)cc(OC)c1OC	SK-OV-3 ovarian	55.5
C=C1C(=O)O[C@H]2[C@H]1CC/C(COC(=O)NCCc1ccc(Br)cc1)=C\CC[C@@]1(C)O[C@@H]21	SK-OV-3 ovarian	97.2
CCC(c1cccc(Br)c1)C(C(=O)O)c1ccc(OC)cc1 (configuration not stated)	SK-OV-3 ovarian	107
O=C(Nc1ccc(I)cc1)c1cccc([N+](=O)[O-])c1O	SK-OV-3 ovarian	-2.55
COc1ccc(-n2c(C)cc(-c3ccccc3)c2C)cc1	SK-OV-3 ovarian	83.2
O=S(=O)(NCCNc1cc(-c2cn(-c3ccccc3)nc2-c2ccccc2)ccn1)c1cccc2ccccc12	SK-OV-3 ovarian	66.3
COc1cc2nc(SCc3cc(OC)c(OC)c(OC)c3)n(Cc3ccccc3)c(=O)c2cc1OC	SK-OV-3 ovarian	29.8
CCn1cc(C2NC(=O)c3cc(F)ccc3N2)c2cccc(Cl)c21 (configuration not stated)	SK-OV-3 ovarian	27.7
CC(=O)OCC1OC(OCC2OC(OC(C)=O)C(OC(C)=O)C(OC(C)=O)C2OC(C)=O)C(OC(C)=O)C(OC(C)=O)C1OC(C)=O (configuration not stated)	SK-OV-3 ovarian	89.9
CC(C)C(C(=O)CCN(C)C)c1ccc(Cl)cc1 (configuration not stated)	SK-OV-3 ovarian	85.2
NC(=O)c1c(NC(=O)c2ccc(OCC3CCCO3)cc2)sc2c1CCCC2 (configuration not stated)	SK-OV-3 ovarian	119
COc1cc2c3c(c(=O)oc2cc1OS(=O)(=O)c1ccc(C(F)(F)F)cc1)CCCCC3	SK-OV-3 ovarian	83
O=C(Cc1n[nH]c(=O)c2ccccc12)OCc1c(Cl)cccc1Cl	SK-OV-3 ovarian	113
CCN(C(=O)c1cc2ccccc2[nH]1)[C@H]1CCC[C@@H](NCc2ccc(OC)cc2)C1	SK-OV-3 ovarian	96.6
CCN(CC)CCCNc1nc(C)cc(Nc2ccc3nc(C)cc(N)c3c2)n1	SK-OV-3 ovarian	89.9
CC(=O)Nc1ccc2c(c1)/C(=C\C=C/c1ccc([N+](C)(C)C)cc1)c1ccccc1-2	SK-OV-3 ovarian	70.2
COc1ccc(OC)c(C(=O)c2oc3ccc(Br)cc3c2N)c1	SK-OV-3 ovarian	-6.27
COc1ccc2c(c1)NC(=O)CN2c1nc(NC2CC2)nc2ccccc12	SK-OV-3 ovarian	23.9
O=C(O)c1ccc(-n2c(=O)c3ccccc3c3ccccc3c2=O)cc1	SK-OV-3 ovarian	101
Cc1ccc(S(=O)(=O)OC2COCOC2C(OS(=O)(=O)c2ccc(C)cc2)C2OCOCC2OS(=O)(=O)c2ccc(C)cc2)cc1 (configuration not stated)	SK-OV-3 ovarian	107
COc1cc(/C=C\c2cc(OC)c(OC)c(OC)c2)cc(N/C=C\C(=O)c2c[nH]c3ccccc23)c1OC	SK-OV-3 ovarian	90.1
COc1cc(NCCCN=C(N)NC(N)=NC(C)C)c2ncccc2c1	SK-OV-3 ovarian	93.7
Oc1ccc(N=Cc2ccccc2)cc1	SK-OV-3 ovarian	119
N#Cc1ccc(NC(=O)c2ccc3cccnc3c2O)cc1	SK-OV-3 ovarian	19.8
Cc1cc(N/C=c2\sc3ncnn3c2=O)no1	SK-OV-3 ovarian	105
CCCCCCCN(CCCCCCC)C(=N)c1ccc(OC)c2ccccc12	SK-OV-3 ovarian	-68.2
Cc1ccc(Nc2ncnc3c2sc2ncccc23)cc1	SK-OV-3 ovarian	101
COc1cccc(-n2cc(-c3nc(Cl)c4ccccc4n3)nn2)c1	SK-OV-3 ovarian	117
COc1cc(C2C=C(C)N=C3SC=CN32)cc(OC)c1OC (configuration not stated)	SK-OV-3 ovarian	112
Nc1cccc2c1CN(C1CCC(=O)NC1=O)C2=O (configuration not stated)	SK-OV-3 ovarian	93.1
O=C1NC(Cc2c[nH]c3ccccc23)C(=O)N1Cc1ccc(Cl)cc1 (configuration not stated)	SK-OV-3 ovarian	101
CC[C@H](C)[C@@H]1NC(=O)[C@H]([C@@H](C)O)NC(=O)C(Cc2ccccc2)NC(=O)[C@@H]2CCCN2C(=O)C(C(C)C)NC(=O)C(Cc2ccccc2)NC(=O)CNC(=O)[C@@H]2CCCN2C1=O (some centres not stated)	SK-OV-3 ovarian	78.4
